Here, each record is paired with measured MIC data.
System: Escherichia coli
assay-details: Antimicrobial activity against Escherichia coli TOP10 harbouring pS2 plasmid expressing quinolone resistant QnrS2 gene
Assay type: functional
measured-property: MIC (µg/mL)

{"compound": "CCn1cc(C(=O)O)c(=O)c2ccc(C)nc21 [NALIDIXIC ACID]", "measured-property": "MIC", "result": 8}
{"compound": "COc1c(N2C[C@@H]3CCCN[C@@H]3C2)c(F)cc2c(=O)c(C(=O)O)cn(C3CC3)c12 [MOXIFLOXACIN]", "measured-property": "MIC", "result": 0.25}
{"compound": "CCn1cc(C(=O)O)c(=O)c2cc(F)c(N3CCNCC3)cc21 [NORFLOXACIN]", "measured-property": "MIC", "result": 1}
{"compound": "C[C@@H]1CN(c2c(F)c(N)c3c(=O)c(C(=O)O)cn(C4CC4)c3c2F)C[C@H](C)N1 [SPARFLOXACIN]", "measured-property": "MIC", "result": 0.25}

* * *

Tested on: Vibrio splendidus
assay-details: Antimicrobial activity against Vibrio splendidus LGP32 expressing plasmid-mediated QnrS-like quinolone resistance determinants
Format: functional

{"compound": "C[C@@H]1CN(c2c(F)c(N)c3c(=O)c(C(=O)O)cn(C4CC4)c3c2F)C[C@H](C)N1", "MIC / mg/L": 0.5}
{"compound": "O=C(O)c1cn(C2CC2)c2cc(N3CCNCC3)c(F)cc2c1=O", "MIC / mg/L": 0.25}
{"compound": "COc1c(N2C[C@@H]3CCCN[C@@H]3C2)c(F)cc2c(=O)c(C(=O)O)cn(C3CC3)c12", "MIC / mg/L": 0.25}
{"compound": "CCn1cc(C(=O)O)c(=O)c2ccc(C)nc21", "MIC / mg/L": 4}
{"compound": "CCn1cc(C(=O)O)c(=O)c2cc(F)c(N3CCNCC3)cc21", "MIC / mg/L": 0.5}
{"compound": "CC1COc2c(N3CCN(C)CC3)c(F)cc3c(=O)c(C(=O)O)cn1c23 (stereo unspecified)", "MIC / mg/L": 0.5}

* * *

Here, each record is paired with measured MIC data.
Tested on: Vibrio splendidus
assay-details: Antimicrobial activity against Vibrio splendidus 12B01 expressing plasmid-mediated QnrS-like quinolone resistance determinants
Assay type: functional

{"compound": "CCn1cc(C(=O)O)c(=O)c2ccc(C)nc21", "measurement-target": "Vibrio splendidus", "MIC [µg/mL]": 2}
{"compound": "CCn1cc(C(=O)O)c(=O)c2cc(F)c(N3CCNCC3)cc21", "measurement-target": "Vibrio splendidus", "MIC [µg/mL]": 0.25}
{"compound": "CC1COc2c(N3CCN(C)CC3)c(F)cc3c(=O)c(C(=O)O)cn1c23 (stereo unspecified)", "measurement-target": "Vibrio splendidus", "MIC [µg/mL]": 0.25}
{"compound": "COc1c(N2C[C@@H]3CCCN[C@@H]3C2)c(F)cc2c(=O)c(C(=O)O)cn(C3CC3)c12", "measurement-target": "Vibrio splendidus", "MIC [µg/mL]": 0.25}
{"compound": "O=C(O)c1cn(C2CC2)c2cc(N3CCNCC3)c(F)cc2c1=O", "measurement-target": "Vibrio splendidus", "MIC [µg/mL]": 0.25}
{"compound": "C[C@@H]1CN(c2c(F)c(N)c3c(=O)c(C(=O)O)cn(C4CC4)c3c2F)C[C@H](C)N1", "measurement-target": "Vibrio splendidus", "MIC [µg/mL]": 0.25}
